Value source: patent US6984649B1

pIC50 for assorted compounds
- tested-on: human IKK-β (Homo sapiens)
- Sequence (O14920 1-756): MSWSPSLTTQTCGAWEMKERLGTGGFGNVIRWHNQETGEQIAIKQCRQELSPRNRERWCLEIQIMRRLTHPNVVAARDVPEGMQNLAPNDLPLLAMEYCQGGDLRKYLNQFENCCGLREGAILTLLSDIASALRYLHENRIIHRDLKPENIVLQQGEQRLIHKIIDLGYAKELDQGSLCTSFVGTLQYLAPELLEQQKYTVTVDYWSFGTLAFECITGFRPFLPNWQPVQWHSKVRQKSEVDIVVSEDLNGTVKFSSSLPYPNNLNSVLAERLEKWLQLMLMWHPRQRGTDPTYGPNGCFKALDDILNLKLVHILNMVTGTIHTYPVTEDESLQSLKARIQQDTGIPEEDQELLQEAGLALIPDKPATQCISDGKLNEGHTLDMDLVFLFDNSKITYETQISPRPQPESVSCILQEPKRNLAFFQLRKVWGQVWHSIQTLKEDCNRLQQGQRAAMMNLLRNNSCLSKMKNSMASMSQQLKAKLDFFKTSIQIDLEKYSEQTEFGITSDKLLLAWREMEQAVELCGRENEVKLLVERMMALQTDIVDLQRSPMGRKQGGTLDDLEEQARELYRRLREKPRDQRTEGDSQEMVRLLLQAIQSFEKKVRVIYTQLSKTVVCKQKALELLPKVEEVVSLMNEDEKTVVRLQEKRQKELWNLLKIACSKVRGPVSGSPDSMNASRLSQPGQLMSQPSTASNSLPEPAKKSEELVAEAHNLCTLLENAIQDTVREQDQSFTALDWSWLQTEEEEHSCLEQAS
pIC50: −log10 of the molar value. Counter-ions that a name gives are not always drawn.

# compound, pIC50
records = [
    ("CN1CCCC(c2cc(-c3c(O)cccc3OCC3CC3)nc(N)c2C#N)C1 (centres unmarked)", "> 6.30"),
]

Query string: Look at this compound and give its reported pIC50. O=C1Nc2nc(-c3c(O)cccc3OCC3CC3)cc(C3CCNCC3)c2CO1
Result string: > 6.30

Query string: Look at this compound and give its reported pIC50. N#Cc1c(C2CCCNC2)cc(-c2c(O)cccc2OCCN2CCCCCC2)nc1N (centres unmarked)
Result string: 5.00 to 5.70

Query string: Look at this compound and give its reported pIC50. CCCOc1cccc(O)c1-c1cc(C2CCNCC2)c(CO)c(N)n1
Result string: > 6.30

Query string: Look at this compound and give its reported pIC50. O=c1[nH]c2nc(-c3c(O)cccc3OCC3CC3)cc(C3CCCNC3)c2cc1F (centres unmarked) [Example 25-2, hydrochloride]
Result string: > 6.30

Query string: Look at this compound and give its reported pIC50. N#Cc1c(C2=CCCNC2)cc(-c2ccccc2O)nc1N [Example 1-9, hydrochloride]
Result string: > 6.30

Query string: Look at this compound and give its reported pIC50. CC(N)Cc1cc(-c2ccccc2O)nc(N)c1C#N (centres unmarked)
Result string: > 6.30

###

- tested-on: human IKK-β (Homo sapiens, UniProt O14920)
- Sequence (O14920 1-756): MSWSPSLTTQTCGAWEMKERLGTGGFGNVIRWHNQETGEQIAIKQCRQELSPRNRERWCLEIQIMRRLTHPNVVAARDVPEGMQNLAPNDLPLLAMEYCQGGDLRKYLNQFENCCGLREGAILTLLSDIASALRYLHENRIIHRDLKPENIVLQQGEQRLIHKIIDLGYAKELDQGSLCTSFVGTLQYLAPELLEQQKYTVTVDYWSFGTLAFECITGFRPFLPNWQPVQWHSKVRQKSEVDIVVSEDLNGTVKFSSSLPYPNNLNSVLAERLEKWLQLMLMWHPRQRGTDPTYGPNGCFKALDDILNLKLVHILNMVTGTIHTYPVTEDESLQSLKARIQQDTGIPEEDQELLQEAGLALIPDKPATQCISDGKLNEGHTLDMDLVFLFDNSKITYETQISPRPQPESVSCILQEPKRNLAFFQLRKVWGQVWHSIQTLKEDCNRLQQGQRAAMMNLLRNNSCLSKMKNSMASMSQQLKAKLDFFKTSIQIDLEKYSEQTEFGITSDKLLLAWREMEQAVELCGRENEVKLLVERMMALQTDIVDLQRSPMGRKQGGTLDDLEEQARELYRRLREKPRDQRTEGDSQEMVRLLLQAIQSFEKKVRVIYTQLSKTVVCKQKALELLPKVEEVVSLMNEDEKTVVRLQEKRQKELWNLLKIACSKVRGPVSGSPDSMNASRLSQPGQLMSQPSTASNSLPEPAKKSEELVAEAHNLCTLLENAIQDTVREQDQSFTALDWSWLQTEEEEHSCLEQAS
pIC50: −log10 of the molar value. Where a name gives a salt, the structure may show the parent alone.
pIC50 for assorted compounds

# compound, pIC50
rows = [
    ("N#Cc1c(CCO)cc(-c2ccccc2O)nc1N [Example 1-44]", "5.70 to 6.30"),
    ("N#Cc1c(C2CCCNC2)cc(-c2ncccc2O)nc1N (stereo not drawn) [Example 1-6, hydrochloride]", "> 6.30"),
    ("Nc1nc(-c2ncccc2O)cc(C2CCCNC2)c1CO (stereo not drawn) [Example 11-3, hydrochloride]", "> 6.30"),
    ("N#Cc1c(C2CCCN(C(=O)CCN3CCCCC3)C2)cc(-c2ccccc2O)nc1N (stereo not drawn) [Example 1-41]", "5.70 to 6.30"),
    ("N#Cc1c(C2CCCNC2)cc(-c2c(O)cccc2OCC2CCCCC2)nc1N (stereo not drawn) [Example 2-53]", "> 6.30"),
    ("CC(=O)Nc1cc2c(C3CCCNC3)cc(-c3c(O)cccc3OCC3CC3)nc2[nH]c1=O (stereo not drawn) [Example 29-3, hydrochloride]", "> 6.30"),
]

Query string: Look at this compound and give its reported pIC50. O=C(NCC(F)(F)F)c1cc2c(C3CCCNC3)cc(-c3c(O)cccc3OCC3CC3)nc2[nH]c1=O (stereo not drawn) [Example 31-27]
Result string: > 6.30

Query string: Look at this compound and give its reported pIC50. Nc1nc(-c2ccccc2O)cc(C2=CCCNC2)c1CO [Example 11-4, hydrochloride]
Result string: > 6.30

Query string: Look at this compound and give its reported pIC50. O=C(NC(c1ccccc1)c1ccccc1)c1cc2c(C3CCCNC3)cc(-c3c(O)cccc3OCC3CC3)nc2[nH]c1=O (stereo not drawn) [Example 31-13]
Result string: > 6.30

Query string: Look at this compound and give its reported pIC50. N#Cc1c([C@@H]2CCCN2)cc(-c2ccccc2O)nc1N [Example 1-31]
Result string: 5.70 to 6.30

Query string: Look at this compound and give its reported pIC50. Cn1c(=O)[nH]c2nc(-c3c(O)cccc3OCC3CC3)cc(C3CCCNC3)c2c1=O (stereo not drawn) [Example 10-2]
Result string: > 6.30

Query string: Look at this compound and give its reported pIC50. N#Cc1c(C2CCCNC2)cc(-c2c(O)cccc2O)nc1N (stereo not drawn) [Example 2-1, hydrochloride]
Result string: > 6.30
